Just for reference, patent US20020137929A1 is where these values come from.

System: IPOHE (Morningglory, Ivyleaf)
Experiment Notes: Preemergence herbicidal evaluation
Assay type: in vivo, Ipomoea hederacea
Condition Summary: rate 0.0625 kg/ha; rated 4-5 weeks after treatment
As shown below, each of these compounds has a reported Preemergence herbicidal rating IPOHE value.

| Compound | Preemergence herbicidal rating IPOHE |
| --- | --- |
| COC(=O)CCN1C(=O)CSC1=Nc1cc(-n2c(=O)cc(C(F)(F)F)n(C)c2=O)c(F)cc1Cl | 0.0 |
| CCOC(=O)CN1C(=O)C(CC(=O)O)O/C1=N/c1cc(-n2c(=O)cc(C(F)(F)F)n(C)c2=O)c(F)cc1Cl (centres unmarked) | 7.0 |
| C=CCN1C(=O)C(CC(=O)Nc2ccccc2)SC1=Nc1cc(-n2c(=O)cc(C(F)(F)F)n(C)c2=O)c(F)cc1Cl (centres unmarked) | 0.0 |
| Cn1c(C(F)(F)F)cc(=O)n(-c2cc(N=C3SCC(=O)N3CCC(=O)O)c(Cl)cc2F)c1=O | 0.0 |
| Cn1c(C(F)(F)F)cc(=O)n(-c2cc(N=C3SCC(=O)N3C3CCOC3=O)c(Cl)cc2F)c1=O (centres unmarked) | 0.0 |
| C#CCOC(=O)CC1SC(=Nc2cc(-n3c(=O)cc(C(F)(F)F)n(C)c3=O)c(F)cc2Cl)N(CC(=O)OCC)C1=O (centres unmarked) | 8.5 |
| COC(=O)[C@H](Cc1ccccc1)N1C(=O)CS/C1=N/c1cc(-n2c(=O)cc(C(F)(F)F)n(C)c2=O)c(F)cc1Cl | 0.0 |
| CCOC(=O)C(c1ccc(Cl)cc1)N1C(=O)CSC1=Nc1cc(-n2c(=O)cc(C(F)(F)F)n(C)c2=O)c(F)cc1Cl (racemic) | 0.0 |
| CCOP(=O)(CN1C(=O)CSC1=Nc1cc(-n2c(=O)cc(C(F)(F)F)n(C)c2=O)c(F)cc1Cl)OCC | 0.0 |
| C=CCN1C(=O)C(CC(=O)NS(=O)(=O)C(C)C)SC1=Nc1cc(-n2c(=O)cc(C(F)(F)F)n(C)c2=O)c(F)cc1Cl (centres unmarked) | 0.0 |
| CCOC(=O)CN1C(=O)C(Cc2ccccc2OC(C)C(=O)OC)SC1=Nc1cc(-n2c(=O)cc(C(F)(F)F)n(C)c2=O)c(F)cc1Cl (centres unmarked) | 0.0 |
| COCCOC(=O)CN1C(=O)CSC1=Nc1cc(-n2c(=O)cc(C(F)(F)F)n(C)c2=O)c(F)cc1Cl | 0.0 |
| CCOC(=O)CN1C(=O)CSC1=Nc1cc(N2C(=O)C3=C(CCCC3)C2=O)c(F)cc1Cl | 0.0 |
| Cn1c(C(F)(F)F)cc(=O)n(-c2cc(/N=C3/SCC(=O)N3CC(=O)O)c(Cl)cc2F)c1=O | 1.0 |
